Entry source: patent EP4714953A1

target: human MC2R (Homo sapiens); construct: host or cells: GeneBLAzer MC2R-CRE-bla CHO-K1 cells; test: Measurement of human MC2R inhibitory activity using intracellular cAMP concentration as an indicator; format: cell-based; settings: test compound at 1 µM; GeneBLAzer MC2R-CRE-bla CHO-K1 cells; ACTH (Human 1-24) final concentration 3 pM; intracellular cAMP by HTRF; read-out: MC2R inhibition rate (% of inhibition)
Sequence (Q01718 whole entry): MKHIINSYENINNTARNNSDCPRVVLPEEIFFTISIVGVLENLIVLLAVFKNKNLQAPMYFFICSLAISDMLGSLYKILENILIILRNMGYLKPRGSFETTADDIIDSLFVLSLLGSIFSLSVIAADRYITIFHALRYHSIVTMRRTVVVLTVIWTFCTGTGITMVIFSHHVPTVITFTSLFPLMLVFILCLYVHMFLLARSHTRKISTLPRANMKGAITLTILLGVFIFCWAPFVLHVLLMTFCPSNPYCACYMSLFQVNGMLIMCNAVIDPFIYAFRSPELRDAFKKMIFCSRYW
Sequence (Q8TCY5 whole entry partner): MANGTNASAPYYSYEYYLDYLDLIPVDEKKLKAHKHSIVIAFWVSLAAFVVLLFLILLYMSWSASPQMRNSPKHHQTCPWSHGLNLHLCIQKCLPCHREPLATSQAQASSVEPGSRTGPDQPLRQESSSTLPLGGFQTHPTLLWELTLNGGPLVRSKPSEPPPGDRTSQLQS
Exercise: for every item that follows, state its recorded inhibition at 1 µM.
Kindly answer with a numeric value in %, unit omitted.

Exercise: May I ask what inhibition at 1 µM has been recorded for `CCOc1ncccc1-c1ccc(N2C[C@H]3CN(c4ccc(Cl)cc4C(F)(F)F)C(=O)N3C[C@H]2CC)c(C(=O)NC[C@H]2CCN2)n1` ?
Key: 100

Exercise: May I ask what inhibition at 1 µM has been recorded for `CCOc1ncccc1-c1ccc(N2C[C@H]3CN(c4ccc(F)cc4C(F)(F)F)C(=O)N3C[C@H]2CC)c(C(=O)N[C@H]2CNC(=O)C2)n1` ?
Key: 100

Exercise: May I ask what inhibition at 1 µM has been recorded for `CCOc1ncccc1-c1ccc(N2C[C@H]3CN(c4ccc(Cl)cc4C(F)(F)F)C(=O)N3C[C@H]2CC)c(C=O)n1` ?
Key: 100

Exercise: May I ask what inhibition at 1 µM has been recorded for `CCOc1ncccc1-c1ccc(N2C[C@H]3CN(c4ccc(C(F)(F)F)cc4C#N)C(=O)N3C[C@H]2CC)c(C(=O)N[C@H]2CNC(=O)C2)n1` ?
Key: 100

Exercise: May I ask what inhibition at 1 µM has been recorded for `CCOc1ccccc1-c1ccc(N2C[C@H]3CN(C4(C(F)(F)F)CCC4)C(=O)N3C[C@H]2CC)c(C(=O)N[C@@H]2CC(=O)N(C)C2)n1` ?
Key: 97

Exercise: May I ask what inhibition at 1 µM has been recorded for CCOc1ncccc1-c1ccc(N2CCN3C(=O)N(c4ccc(Cl)cc4C(F)(F)F)CC3C2)c(C(=O)NCCN(C)C)n1 (centres unmarked) ?
Key: 100

Exercise: May I ask what inhibition at 1 µM has been recorded for `CCOc1ncccc1-c1ccc(N2CCN3C(=O)N(c4ccc(Cl)cc4C(F)(F)F)C[C@@H]3C2)c(C(=O)NCCC2CCN(C(=O)OC(C)(C)C)CC2)n1` ?
Key: 82

Exercise: May I ask what inhibition at 1 µM has been recorded for `CCOc1ncccc1-c1ccc(N2C[C@H]3CN(c4ccc(Cl)cc4C(F)(F)F)C(=O)N3C[C@H]2CC)c(C(=O)NC[C@@H](C)O)n1` ?
Key: 100

====

Target: human MC2R (Homo sapiens)
Construct: host or cells: GeneBLAzer MC2R-CRE-bla CHO-K1 cells
Test: Measurement of human MC2R inhibitory activity using intracellular cAMP concentration as an indicator
Assay type: cell-based
Details: test compound at 1 µM; GeneBLAzer MC2R-CRE-bla CHO-K1 cells; ACTH (Human 1-24) final concentration 3 pM; intracellular cAMP by HTRF; read-out: MC2R inhibition rate (% of inhibition)
Text: Experimental Example 1: Measurement of human MC2R inhibitory activity using intracellular cAMP concentration as an indicator […]
ENDPOINT NAME: inhibition at 1 µM (%)
Kindly answer with a numeric value in %, unit omitted.

Exercise: May I ask what inhibition at 1 µM has been recorded for `CCOc1ncccc1-c1ccc(N2C[C@H]3CN(C4(C(F)(F)F)CCC4)C(=O)N3C[C@H]2CC)c(C(=O)N[C@@H]2CC(=O)N(C)C2)n1` ?
Key: 89

Exercise: May I ask what inhibition at 1 µM has been recorded for `CCOc1ncccc1-c1ccc(N2CCN3C(=O)N(c4ccc(Cl)cc4C(F)(F)F)C[C@@H]3C2)c(C(=O)NCCCn2cccn2)n1` ?
Key: 100

Exercise: May I ask what inhibition at 1 µM has been recorded for `CCOc1ncccc1-c1ccc(N2CCN3C(=O)N(c4ccc(Cl)cc4C(F)(F)F)C[C@@H]3C2)c(C(=O)NCC2(O)COC2)n1` ?
Key: 100

Exercise: May I ask what inhibition at 1 µM has been recorded for `CCOc1ncccc1-c1ccc(N2C[C@H]3CN(c4ccc(Cl)cc4C#N)C(=O)N3C[C@H]2CC)c(C(=O)N[C@H]2CNC(=O)C2)n1` ?
Key: 100

Exercise: May I ask what inhibition at 1 µM has been recorded for `CCOc1ncccc1-c1ccc(N2C[C@H]3CN(c4ccc(Cl)cc4C(F)(F)F)C(=O)N3C[C@H]2CC)c(C(=O)NCCN(C)C)n1` ?
Key: 100

Exercise: May I ask what inhibition at 1 µM has been recorded for `CCOc1ncccc1-c1ccc(N2CCN3C(=O)N(c4ccc(Cl)cc4C(F)(F)F)C[C@@H]3C2)c(C(=O)N[C@@H]2CCN(C)C2)n1` ?
Key: 100

Exercise: May I ask what inhibition at 1 µM has been recorded for `CCOc1ncccc1-c1ccc(N2C[C@H]3CN(c4ccc(Cl)cc4C(F)(F)F)C(=O)N3C[C@H]2CC)c(C(=O)NCC(C)(C)O)n1` ?
Key: 100

Exercise: May I ask what inhibition at 1 µM has been recorded for `CC[C@@H]1CN2C(=O)N(c3ccc(Cl)cc3C(F)(F)F)C[C@@H]2CN1c1ccc(-c2cccnc2OC)nc1C(=O)N[C@@H]1CC(=O)N(C)C1` ?
Key: 92

Exercise: May I ask what inhibition at 1 µM has been recorded for `CCOc1ncccc1-c1ccc(N2C[C@H]3CN(C4(C(F)(F)F)CC4)C(=O)N3C[C@H]2CC)c(C(=O)N[C@@H]2CC(=O)N(C)C2)n1` ?
Key: 87

Exercise: May I ask what inhibition at 1 µM has been recorded for `CC[C@@H]1CN2C(=O)N(c3ccc(Cl)cc3C(F)(F)F)C[C@@H]2CN1c1ccc(-c2ccccc2OC)nc1C(=O)N[C@@H]1CC(=O)N(C)C1` ?
Key: 96

Exercise: May I ask what inhibition at 1 µM has been recorded for `CCOc1ncccc1-c1ccc(N2CCN3C(=O)N(c4ccc(Cl)cc4C(F)(F)F)C[C@@H]3C2)c(C(=O)NCCN(C)C)n1` ?
Key: 100

Exercise: May I ask what inhibition at 1 µM has been recorded for CCOc1ncccc1-c1ccc(N2CCN3C(=O)N(c4ccc(Cl)cc4C(F)(F)F)CC3C2)c(C=O)n1 (stereo not drawn) ?
Key: 100

Exercise: May I ask what inhibition at 1 µM has been recorded for `CCOc1ncccc1-c1ccc(N2C[C@H]3CN(c4ccc(Cl)cc4C(F)(F)F)C(=O)N3C[C@H]2CC)c(C(=O)NC[C@H](C)O)n1` ?
Key: 96

Exercise: May I ask what inhibition at 1 µM has been recorded for `CCOc1ncccc1-c1ccc(N2C[C@H]3CN(c4ccc(Cl)cc4C(F)(F)F)C(=O)N3C[C@H]2CC)c(C(=O)N[C@H]2CCNC2=O)n1` ?
Key: 100

Exercise: May I ask what inhibition at 1 µM has been recorded for `CCOc1ccccc1-c1ccc(N2C[C@H]3CN(c4ccc(Cl)cc4C(F)(F)F)C(=O)N3C[C@H]2CC)c(C(=O)N[C@@H]2CC(=O)N(C)C2)n1` ?
Key: 94

Exercise: May I ask what inhibition at 1 µM has been recorded for `CCOc1ncccc1-c1ccc(N2CCN3C(=O)N(c4ccc(Cl)cc4C(F)(F)F)C[C@@H]3C2)c(C(=O)NCC2CCOCC2)n1` ?
Key: 97

Exercise: May I ask what inhibition at 1 µM has been recorded for `CCOc1ncccc1-c1ccc(N2C[C@H]3CN(c4ccc(Cl)cc4C(F)(F)F)C(=O)N3C[C@H]2CC)c(C(=O)NC[C@H]2CCN2C(=O)OC(C)(C)C)n1` ?
Key: 100

Exercise: May I ask what inhibition at 1 µM has been recorded for `CCOc1ncccc1-c1ccc(N2CCN3C(=O)N(c4ccc(Cl)cc4C(F)(F)F)C[C@H]3C2)c(C(=O)NCCN(C)C)n1` ?
Key: 90

Exercise: May I ask what inhibition at 1 µM has been recorded for `CCOc1ncccc1-c1ccc(N2C[C@H]3CN(c4ccc(Cl)cc4C(F)(F)F)C(=O)N3C[C@H]2C)c(C(=O)N[C@@H]2CC(=O)N(C)C2)n1` ?
Key: 97

Exercise: May I ask what inhibition at 1 µM has been recorded for `CCOc1ncccc1-c1ccc(N2CCN3C(=O)N(c4ccc(Cl)cc4C(F)(F)F)C[C@H]3C2)c(C=O)n1` ?
Key: 91

Exercise: May I ask what inhibition at 1 µM has been recorded for `CCOc1ncccc1-c1ccc(N2C[C@H]3CN(c4ccc(Cl)cc4C(F)(F)F)C(=O)N3C[C@H]2CC)c(C(=O)N[C@@H](C)C(=O)NC)n1` ?
Key: 100

Exercise: May I ask what inhibition at 1 µM has been recorded for `CCOc1ncccc1-c1ccc(N2CCN3C(=O)N(c4ccc(Cl)cc4C(F)(F)F)C[C@@H]3C2)c(C=O)n1` ?
Key: 100

Exercise: May I ask what inhibition at 1 µM has been recorded for `CCOc1ncccc1-c1ccc(N2C[C@H]3CN(c4ccc(Cl)cc4C(F)(F)F)C(=O)N3C[C@H]2CC)c(C(=O)N[C@@H]2CNC(=O)C2)n1` ?
Key: 100

Exercise: May I ask what inhibition at 1 µM has been recorded for `COc1ccccc1-c1ccc(N2C[C@H]3CN(c4ccc(Cl)cc4C(F)(F)F)C(=O)N3C[C@H]2C)c(C(=O)N[C@@H]2CC(=O)N(C)C2)n1` ?
Key: 95
